Source: patent US20240294551A1

TESTED TARGET: GDP-bound KRAS protein (aa 1-169), containing both G12D and C118A amino acid substitutions (Homo sapiens (Human), UniProt P01116, C118A/G12D)
Sequence (P01116 other isoform, or with tags, fused parts or gaps G12D/C118A): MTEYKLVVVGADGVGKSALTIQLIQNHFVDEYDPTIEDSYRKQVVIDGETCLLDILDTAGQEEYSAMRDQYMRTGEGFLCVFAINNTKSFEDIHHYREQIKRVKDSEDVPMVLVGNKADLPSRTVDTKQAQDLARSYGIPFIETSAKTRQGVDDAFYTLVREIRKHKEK
TEST SUMMARY: KRAS G12D Coupled Nucleotide Exchange Assay
Format: biochemical
MEASUREMENT CONTEXT: read-out: KRAS G12D Coupled Exchange IC50
Where a name gives a salt, the structure may show the parent alone.
MEASUREMENT LABEL: IC50 (nM)

1) C[C@@]12CCCN(C1)c1nc(OC[C@@]34CCCN3C[C@H](F)C4)nc3c(F)c(ncc13)-c1cc(O)cc3c1[C@H](CCCC(=O)N2)CCC3 [Example 28, 2,2,2-trifluoroacetate salt] = 48
2) [2H]C([2H])([2H])[C@]12COCCN(C1)c1nc(OC[C@@]34CCCN3C[C@H](F)C4)nc3c(F)c(ncc13)-c1c(c(Cl)cc3[nH]ncc13)CCCOC(=O)O2 [Example 354] = 531
3) CN1CCC[C@H]1COc1nc2c3cnc(c(F)c3n1)-c1c(c(Cl)cc3[nH]ncc13)CCCOC(=O)O[C@]1(C)COCCN2C1 [Example 181] = 3
4) Cc1cc2[nH]ncc2c2c1CCCCC(=O)N[C@@H]1CCCCN(C1)c1nc(OC[C@@]34CCCN3C[C@H](F)C4)nc3c(F)c-2ncc13 [Example 54] = 3
5) O=C1CC/C=C\c2c(Cl)cc3[nH]ncc3c2-c2ncc3c(nc(OC[C@@]45CCCN4C[C@H](F)C5)nc3c2F)N2CCCC(C2)O1 (stereo in doubt) [Example 35, bis(2,2,2-trifluoroacetate)] = 1

----------
TESTED TARGET: GDP-bound KRAS protein (aa 1-169), containing both G12D and C118A amino acid substitutions (Homo sapiens (Human), UniProt P01116, C118A/G12D)
TEST SUMMARY: KRAS G12D Coupled Nucleotide Exchange Assay
Type: biochemical
MEASUREMENT CONTEXT: read-out: KRAS G12D Coupled Exchange IC50
MEASUREMENT LABEL: IC50

1. Cc1cc2[nH]ncc2c2c1CC/C=C/CO[C@@H]1CCCN(C1)c1nc(OC[C@@]34CCCN3C[C@H](F)C4)nc3c(F)c-2ncc13 = 59 nM
2. Fc1c2ncc3c(nc(OC[C@@]45CCCN4C[C@H](F)C5)nc13)N1CCO[C@@H](CCOCCCc3c(Cl)cc4[nH]ncc4c3-2)C1 = 39 nM
3. O=C1OCCCc2c(Cl)cc3[nH]ncc3c2-c2ncc3c(nc(OC[C@@]45CCCN4C[C@H](F)C5)nc3c2F)N2CCC[C@]3(C2)C[C@H](C3)O1 = 2 nM
4. Cc1nc2c3cnc(c(F)c3n1)-c1cc(O)cc3ccc(F)c(c13)CCCC(=O)N[C@]1(C)CCCN2C1.O=C(O)C(F)(F)F = 296 nM
5. O=C1OCCc2cccc3cccc(c23)-c2ncc3c(nc(OC[C@@]45CCCN4C[C@H](F)C5)nc3c2F)N2CCOC[C@H](C2)O1 = 8 nM
6. Cc1cc2[nH]ncc2c2c1CCOC(=O)O[C@H]1C[C@]3(CCCN(C3)c3nc(OC[C@@]45CCCN4C[C@H](F)C5)nc4c(F)c-2ncc34)C1 = 24 nM

----------
TESTED TARGET: GDP-bound KRAS protein (aa 1-169), containing both G12D and C118A amino acid substitutions (Homo sapiens (Human), UniProt P01116, C118A/G12D)
TEST SUMMARY: KRAS G12D Coupled Nucleotide Exchange Assay
Format: biochemical
MEASUREMENT CONTEXT: read-out: KRAS G12D Coupled Exchange IC50
Here the recorded IC50 is given for each entry.
MEASUREMENT LABEL: IC50

1. Cc1cc2[nH]ncc2c2c1C/C=C/COC[C@@H]1CCCN(C1)c1nc(OC[C@@]34CCCN3C[C@H](F)C4)nc3c(F)c-2ncc13 [Example 130] = 2 nM
2. [2H]C([2H])([2H])[C@@]12COCCN(C1)c1nc(OC[C@@]34CCCN3C[C@H](F)C4)nc3c(F)c(ncc13)-c1c(c(C)cc3[nH]ncc13)CCCOC(=O)O2 [Example 352] = 2 nM
3. Cc1cc2[nH]ncc2c2c1CCCC(=O)OC[C@@H]1CCCN(C1)c1nc(OC[C@@]34CCCN3C[C@H](F)C4)nc3c(F)c-2ncc13 [Example 106] = 1 nM

----------
Here the recorded IC50 is given for each entry.
TESTED TARGET: His-tagged KRAS G12D protein (Homo sapiens (Human), UniProt P01116, G12D)
Sequence (P01116 other isoform, or with tags, fused parts or gaps G12D): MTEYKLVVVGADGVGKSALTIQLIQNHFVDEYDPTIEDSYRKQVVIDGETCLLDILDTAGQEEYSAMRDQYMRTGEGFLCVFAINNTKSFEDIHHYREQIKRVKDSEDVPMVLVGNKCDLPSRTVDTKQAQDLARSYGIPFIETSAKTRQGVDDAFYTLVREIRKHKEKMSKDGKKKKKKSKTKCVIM
TEST SUMMARY: KRAS G12D TR-FRET Assay
Assay type: binding
MEASUREMENT CONTEXT: TR-FRET; read-out: KRAS G12D Binding
MEASUREMENT LABEL: IC50

1. O[C@H]1C[C@@H]2CN(C1)c1nc(OC[C@@]34CCCN3C[C@H](F)C4)nc3c(F)c(ncc13)-c1c(c(Cl)cc3[nH]ncc13)CCCc1nc2no1 [Example 378] = 34 nM
2. CN(C)CC1(COc2nc3c4cnc(c(F)c4n2)-c2c(c(Cl)cc4[nH]ncc24)CCCCO[C@H]2C[C@]4(CCCN3C4)C2)CC1 = 5 nM
3. CN(C)CC1(COc2nc3c4cnc(c(F)c4n2)-c2c(c(Cl)cc4[nH]ncc24)CCCCOCC2(F)CCCCN3C2)CC1 (stereo in doubt) [Example 400] = 15 nM

----------
TESTED TARGET: His-tagged KRAS G12D protein (Homo sapiens (Human), UniProt P01116, G12D)
TEST SUMMARY: KRAS G12D TR-FRET Assay
Type: binding
MEASUREMENT CONTEXT: read-out: KRAS G12D Binding IC50
MEASUREMENT LABEL: IC50

1. O=C1CCCc2cccc3cccc(c23)-c2ncc3c(nc(OC[C@@]45CCCN4C[C@H](F)C5)nc3c2F)N2CCC[C@H](C2)O1 [Example 29, bis(2,2,2-trifluoroacetate)] = 0.443 µM
2. O=C1OCCc2c(Cl)cc3[nH]ncc3c2-c2ncc3c(nc(OC[C@@]45CCCN4C[C@H](F)C5)nc3c2F)N2CCC[C@@H](CO1)C2 = 0.004 µM
3. Fc1c2ncc3c(nc(OC[C@@]45CCCN4C[C@H](F)C5)nc13)N1CCOC[C@@H](COCCCCc3c(Cl)cc4[nH]ncc4c3-2)C1 (single isomer, unassigned) = 0.004 µM
4. Cc1cc2[nH]ncc2c2c1CCCCC(=O)N[C@]1(C)COCCN(C1)c1nc(OC[C@@]34CCCN3C[C@H](F)C4)nc3c(F)c-2ncc13 (mixture of isomers) = 0.046 µM
5. [O-][S+]1CCCCc2c(Cl)cc3[nH]ncc3c2-c2ncc3c(nc(OC[C@@]45CCCN4C[C@H](F)C5)nc3c2F)N2CCC[C@H](C2)C1 (mixture of isomers) = 0.146 µM
6. Cc1nc2c3cnc(c(F)c3n1)-c1c(c(C)cc3[nH]ncc13)CCCOC(=O)O[C@@H]1COCCN2C1 = 0.435 µM
7. C[C@@]12COCCN(C1)c1nc(OC[C@@]34CCCN3C[C@H](F)C4)nc3cc(ncc13)-c1c(c(Cl)cc3[nH]ncc13)CCCOC(=O)O2 = 0.005 µM
8. Fc1c2ncc3c(nc(OC[C@@]45CCCN4C[C@H](F)C5)nc13)N1CCC[C@@H](CCOCCCc3c(Cl)cc4[nH]ncc4c3-2)C1 = 0.006 µM
9. Fc1c2ncc3c(nc(OC[C@@]45CCCN4C[C@H](F)C5)nc13)N1CC(COCCCCc3c(Cl)cc4[nH]ncc4c3-2)CC2(CC2)C1 (some centres unmarked) = 0.012 µM
10. C[C@@]12COCCN(C1)c1nc(OC[C@@]34CCCN3C[C@H](F)C4)nc3c(F)c(ncc13)-c1c(c(Cl)cc3[nH]ncc13)CCCOC(=O)O2 = 0.003 µM
11. O=C1CCCc2c(Cl)cc3[nH]ncc3c2-c2ncc3c(nc(OC[C@@]45CCCN4C[C@H](F)C5)nc3c2F)N2CCCC3(CC(C3)N1)C2 = 0.032 µM
12. Cc1cc2[nH]ncc2c2c1CCCCC(=O)N[C@@H]1CCCCN(C1)c1nc(OC[C@@]34CCCN3C[C@H](F)C4)nc3c(F)c-2ncc13 = 0.006 µM
13. Cc1cc2[nH]ncc2c2c1CCCCC(=O)N[C@]1(C)CCCCN(C1)c1nc(OC[C@@]34CCCN3C[C@H](F)C4)nc3c(F)c-2ncc13 = 0.01 µM
14. O=C1OCCc2c(Cl)cc3[nH]ncc3c2-c2ncc3c(nc(OC[C@@]45CCCN4C[C@@H](F)C5)nc3c2F)N2CCC[C@]3(C2)C[C@H](C3)O1 = 0.006 µM
15. Cc1cc2[nH]ncc2c2c1CCOC(=O)OC[C@@H]1CCN(C1)c1nc(OC[C@@]34CCCN3C[C@H](F)C4)nc3c(F)c-2ncc13 = 0.019 µM
16. O=C1OCCCc2c(Cl)cc3[nH]ncc3c2-c2ncc3c(nc(OC[C@@]45CCCN4C[C@H](F)C5)nc3c2F)N2CC[C@H]3CCN1[C@H]3C2 = 0.003 µM
17. C[C@@]12CCCN(C1)c1nc(OC[C@@]34CCCN3C[C@H](F)C4)nc3c(F)c(ncc13)-c1cccc3ccc(F)c(c13)CCOC(=O)N2 = 0.014 µM
18. C[C@@]12CCCN(C1)c1nc(OC[C@@]34CCCN3C[C@H](F)C4)nc3c(F)c(ncc13)-c1cccc3ccc(F)c(c13)CC[C@H](F)C(=O)N2 = 0.006 µM
19. O=C1OCCCc2c(Cl)cc3[nH]ncc3c2-c2c(F)cc3c(nc(OC[C@@]45CCCN4C[C@H](F)C5)nc3c2F)N2CCOC[C@H](C2)O1 [Example 188] = 0.071 µM
20. Cc1cc2[nH]ncc2c2c1CCCOC(=O)OC1CC[C@@H]3CC[C@H]1N3c1nc(OC[C@@]34CCCN3C[C@H](F)C4)nc3c(F)c-2ncc13 (racemic) = 0.067 µM
21. Cc1cc2[nH]ncc2c2c1CCOC(=O)O[C@H]1C[C@]3(CCCN(C3)c3nc(OC[C@@]45CCCN4C[C@H](F)C5)nc4cc-2ncc34)C1 = 0.005 µM
22. O=C1CCCCc2cccc3cc(O)cc(c23)-c2ncc3c(nc(OC[C@@]45CCCN4C[C@H](F)C5)nc3c2F)N2CCCN1CC2 [Example 9, bis(2,2,2-trifluoroacetate)] = 0.302 µM
23. Cc1cc2[nH]ncc2c2c1CCCCC(=O)O[C@]1(CF)CCCN(C1)c1nc(OC[C@@]34CCCN3C[C@H](F)C4)nc3c(F)c-2ncc13 = 0.006 µM
